molecular target: T1, mouse MET ECD (mouse, UniProt P16056 25-931); assay: ELISA, MET ECD in solid phase, mAb 0-20 nM
T1 construct: range 1-931; recombinant ECD made by the applicants; the stated range begins at residue 1; also called mMET; mMET ECD
T1 sequence (P16056 25-931 limits assumed, form in doubt): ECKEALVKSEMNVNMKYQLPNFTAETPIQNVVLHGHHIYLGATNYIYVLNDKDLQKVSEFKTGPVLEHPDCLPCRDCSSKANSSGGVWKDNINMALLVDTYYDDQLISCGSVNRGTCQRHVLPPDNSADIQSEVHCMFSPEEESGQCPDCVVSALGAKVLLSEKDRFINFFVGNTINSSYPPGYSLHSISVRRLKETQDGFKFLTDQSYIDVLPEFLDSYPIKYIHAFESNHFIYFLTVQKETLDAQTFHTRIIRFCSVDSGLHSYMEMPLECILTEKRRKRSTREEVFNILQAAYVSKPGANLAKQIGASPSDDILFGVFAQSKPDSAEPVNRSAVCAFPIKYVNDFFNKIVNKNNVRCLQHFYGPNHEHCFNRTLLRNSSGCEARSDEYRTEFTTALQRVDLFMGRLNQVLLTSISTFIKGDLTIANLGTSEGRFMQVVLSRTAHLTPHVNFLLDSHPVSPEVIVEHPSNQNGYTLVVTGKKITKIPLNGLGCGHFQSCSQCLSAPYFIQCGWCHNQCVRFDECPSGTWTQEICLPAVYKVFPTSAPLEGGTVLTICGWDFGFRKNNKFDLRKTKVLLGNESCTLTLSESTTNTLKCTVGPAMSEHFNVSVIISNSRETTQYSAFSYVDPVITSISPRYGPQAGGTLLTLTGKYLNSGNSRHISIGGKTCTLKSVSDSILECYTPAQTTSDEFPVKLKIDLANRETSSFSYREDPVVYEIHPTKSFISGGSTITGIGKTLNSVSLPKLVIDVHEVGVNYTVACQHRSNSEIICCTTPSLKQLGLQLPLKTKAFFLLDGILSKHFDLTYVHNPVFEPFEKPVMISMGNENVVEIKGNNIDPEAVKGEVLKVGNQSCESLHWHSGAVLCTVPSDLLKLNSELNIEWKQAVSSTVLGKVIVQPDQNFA
Measured property: EMAX (OD450) (AU)
Kindly provide the numeric value in AU only, without the unit symbol.

Sample answers from the record:
1. 71D4 chimeric llama-human IgG1 mAb (antibody, V domains shown, llama VH on human IgG1 CH1-CH2-CH3, llama VL on human lambda CL) VH: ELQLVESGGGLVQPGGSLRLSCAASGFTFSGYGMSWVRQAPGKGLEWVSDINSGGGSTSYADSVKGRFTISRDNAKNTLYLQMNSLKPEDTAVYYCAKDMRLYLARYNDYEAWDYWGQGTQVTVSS VL: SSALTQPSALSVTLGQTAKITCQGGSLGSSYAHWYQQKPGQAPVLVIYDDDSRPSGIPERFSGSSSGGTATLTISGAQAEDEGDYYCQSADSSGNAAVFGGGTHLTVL; 1.17
2. 71D6 chimeric llama-human IgG1 mAb (antibody, V domains shown, llama VH on human IgG1 CH1-CH2-CH3, llama VL on human lambda CL) VH: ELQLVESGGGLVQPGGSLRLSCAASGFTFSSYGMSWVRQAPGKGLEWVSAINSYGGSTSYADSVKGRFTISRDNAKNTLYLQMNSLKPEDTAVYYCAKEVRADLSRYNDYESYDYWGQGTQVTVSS VL: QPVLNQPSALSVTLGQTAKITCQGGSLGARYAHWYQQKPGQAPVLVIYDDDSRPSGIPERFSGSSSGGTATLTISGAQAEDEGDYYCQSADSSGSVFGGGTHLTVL; 2.01
3. 71C3 chimeric llama-human IgG1 mAb (antibody, V domains shown, llama VH on human IgG1 CH1-CH2-CH3, llama VL on human lambda CL) VH: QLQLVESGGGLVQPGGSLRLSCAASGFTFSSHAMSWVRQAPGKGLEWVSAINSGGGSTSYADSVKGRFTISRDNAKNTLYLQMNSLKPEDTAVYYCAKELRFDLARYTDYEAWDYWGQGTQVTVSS VL: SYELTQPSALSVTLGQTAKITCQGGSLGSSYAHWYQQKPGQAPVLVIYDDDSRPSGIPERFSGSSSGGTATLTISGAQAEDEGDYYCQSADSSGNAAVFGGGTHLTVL; 2.24
4. 71G2 chimeric llama-human IgG1 mAb (antibody, V domains shown, llama VH on human IgG1 CH1-CH2-CH3, llama VL on human lambda CL) VH: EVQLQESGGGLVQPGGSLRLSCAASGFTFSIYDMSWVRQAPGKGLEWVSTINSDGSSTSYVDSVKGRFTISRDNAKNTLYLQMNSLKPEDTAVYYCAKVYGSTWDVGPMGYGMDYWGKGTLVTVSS VL: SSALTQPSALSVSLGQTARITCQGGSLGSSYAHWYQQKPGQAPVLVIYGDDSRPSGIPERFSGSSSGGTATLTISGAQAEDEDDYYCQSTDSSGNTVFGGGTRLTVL; 3.17
5. 71A3 chimeric llama-human IgG1 mAb (antibody, V domains shown, llama VH on human IgG1 CH1-CH2-CH3, llama VL on human lambda CL) VH: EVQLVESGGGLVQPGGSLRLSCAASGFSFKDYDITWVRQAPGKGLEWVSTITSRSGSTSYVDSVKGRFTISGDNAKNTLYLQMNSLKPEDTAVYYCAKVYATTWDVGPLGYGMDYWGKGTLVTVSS VL: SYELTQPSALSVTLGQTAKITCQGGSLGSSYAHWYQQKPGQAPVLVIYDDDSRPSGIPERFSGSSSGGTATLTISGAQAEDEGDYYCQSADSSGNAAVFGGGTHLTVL; 2.73

## Task So what does the record say about EMAX (OD450) for 76G7 chimeric llama-human IgG1 mAb (antibody, V domains shown, llama VH on human IgG1 CH1-CH2-CH3, llama VL on human lambda CL) VH: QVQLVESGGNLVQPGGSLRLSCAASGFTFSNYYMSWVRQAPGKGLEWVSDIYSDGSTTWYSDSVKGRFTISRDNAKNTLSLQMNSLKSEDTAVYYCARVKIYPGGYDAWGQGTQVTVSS VL: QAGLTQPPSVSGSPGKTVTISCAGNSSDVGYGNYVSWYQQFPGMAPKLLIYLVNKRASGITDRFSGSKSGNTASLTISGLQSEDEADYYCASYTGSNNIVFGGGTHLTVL ?
## Result 2.78

## Task For 71G3 chimeric llama-human IgG1 mAb (antibody, V domains shown, llama VH on human IgG1 CH1-CH2-CH3, llama VL on human lambda CL) VH: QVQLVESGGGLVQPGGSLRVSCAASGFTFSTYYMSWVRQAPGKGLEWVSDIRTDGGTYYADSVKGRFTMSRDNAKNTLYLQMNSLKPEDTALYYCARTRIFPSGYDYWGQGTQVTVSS VL: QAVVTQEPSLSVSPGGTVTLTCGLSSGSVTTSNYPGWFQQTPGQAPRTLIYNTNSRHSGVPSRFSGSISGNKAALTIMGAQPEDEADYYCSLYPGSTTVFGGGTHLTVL then?
## Result 2.98

## Task Also check 74C8 chimeric llama-human IgG1 mAb (antibody, V domains shown, llama VH on human IgG1 CH1-CH2-CH3, llama VL on human lambda CL) VH: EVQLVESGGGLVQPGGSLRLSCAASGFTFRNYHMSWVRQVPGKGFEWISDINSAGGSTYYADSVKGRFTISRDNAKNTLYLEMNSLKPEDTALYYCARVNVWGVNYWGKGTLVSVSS VL: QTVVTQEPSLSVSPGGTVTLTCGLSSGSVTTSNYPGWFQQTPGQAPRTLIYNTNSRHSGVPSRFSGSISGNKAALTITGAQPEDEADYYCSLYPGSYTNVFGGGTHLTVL
## Result 0.896

## Task Further, for 71G12 chimeric llama-human IgG1 mAb (antibody, V domains shown, llama VH on human IgG1 CH1-CH2-CH3, llama VL on human kappa CL) VH: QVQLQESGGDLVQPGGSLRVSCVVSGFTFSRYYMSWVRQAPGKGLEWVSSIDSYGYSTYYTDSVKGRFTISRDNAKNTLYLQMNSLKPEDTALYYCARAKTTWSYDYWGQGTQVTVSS VL: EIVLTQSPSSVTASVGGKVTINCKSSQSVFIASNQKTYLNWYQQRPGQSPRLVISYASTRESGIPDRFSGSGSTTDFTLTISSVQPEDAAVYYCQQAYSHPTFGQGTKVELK ?
## Result 2.97

## Task Also 76H10 chimeric llama-human IgG1 mAb (antibody, V domains shown, llama VH on human IgG1 CH1-CH2-CH3, llama VL on human lambda CL) VH: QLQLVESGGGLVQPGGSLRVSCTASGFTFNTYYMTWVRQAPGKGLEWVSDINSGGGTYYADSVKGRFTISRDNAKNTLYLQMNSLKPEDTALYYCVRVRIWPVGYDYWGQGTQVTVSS VL: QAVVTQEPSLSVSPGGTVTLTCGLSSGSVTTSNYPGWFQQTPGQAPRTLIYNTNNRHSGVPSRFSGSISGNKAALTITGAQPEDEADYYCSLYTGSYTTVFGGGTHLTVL ?
## Result 2.66

## Task Okay, and 72F8 chimeric llama-human IgG1 mAb (antibody, V domains shown, llama VH on human IgG1 CH1-CH2-CH3, llama VL on human lambda CL) VH: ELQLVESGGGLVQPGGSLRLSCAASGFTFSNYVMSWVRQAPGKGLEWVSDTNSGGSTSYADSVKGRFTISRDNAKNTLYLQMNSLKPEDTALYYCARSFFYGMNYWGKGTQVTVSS VL: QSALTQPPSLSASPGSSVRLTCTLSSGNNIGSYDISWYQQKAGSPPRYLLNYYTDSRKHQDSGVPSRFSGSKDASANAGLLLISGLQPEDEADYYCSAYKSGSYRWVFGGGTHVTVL ?
## Result 2.9
